Each entry below carries its reported viability, T/C.
system: 966289-007-R4-J1-PDC complex spheroid viability; assay: Anticancer human tumor 966289-007-R4-J1-PDC patient-derived pancreatic adenocarcinoma cell line growth inhibition [RAS]; details: second compound 0.03 µM; first compound 1 µM; stronger effect = lower value
Only the number, expressed in %, is required.

See these solved cases before continuing.
compound	measured_property	unit_of_measure	recorded_result
CC(Nc1ccc2c(c1)OCCn1cc(N3C(=O)OCC3C(F)F)nc1-2)C(N)=O (centres undefined) + CCn1c(-c2cccnc2C(C)OC)c2c3cc(ccc31)N1CCOC(CC(NC(=O)C(C(C)C)N(C)C(=O)C3(F)CCN(C(=O)C#CC(C)(C)N(C)C)CC3)C(=O)N3CCCC(N3)C(=O)OCC(C)(C)C2)C1	viability, T/C	%	82.3
CC(C)NCC(C(=O)N1CCN(c2ncnc3c2C(C)CC3O)CC1)c1ccc(Cl)cc1 (centres undefined) + CCn1c(-c2cc(N3CCN(C)CC3)cnc2C(C)OC)c2c3cc(ccc31)-c1csc(n1)CC(NC(=O)C1CC1C)C(=O)N1CCCC(N1)C(=O)OCC(C)(C)C2	viability, T/C	%	97.6
CCC(CC)c1cc(NC2CCC(N)C2)n2nccc2n1 (centres undefined) + CCn1c(-c2cc(N3CCN(C)CC3)cnc2C(C)OC)c2c3cc(ccc31)-c1csc(n1)CC(NC(=O)C1CC1C)C(=O)N1CCCC(N1)C(=O)OCC(C)(C)C2	viability, T/C	%	98.9

--- query ---
In: Recorded viability, T/C of NC1c2ccccc2OC12CCN(c1cnc3c(N4CCCc5ncccc54)n[nH]c3n1)CC2 (centres undefined) + CCn1c(-c2cc(N3CCN(C)CC3)cnc2C(C)OC)c2c3cc(ccc31)-c1csc(n1)CC(NC(=O)C1CC1C)C(=O)N1CCCC(N1)C(=O)OCC(C)(C)C2 , please.
Out: 105

----------
system: 966289-007-R4-J1-PDC complex spheroid viability; test: Anticancer human tumor 966289-007-R4-J1-PDC cell line growth inhibition [RAS]; conditions: second compound 0.00949 µM; first compound 10 µM; active = viability on the fitted dose curve at most 10% of control; inactive = the rest;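 further: spheroids exposed to agents for one week before readout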
Returns: one label drawn from active, inactive

Reference set (3 entries):
molecule	qualitative_label
Cc1nc(N2CCC3(CC2)COC(C)C3N)c(CO)nc1Sc1ccnc(N)c1Cl (centres undefined) + CCn1c(-c2cc(N3CCN(C)CC3)cnc2C(C)OC)c2c3cc(ccc31)-c1csc(n1)CC(NC(=O)C1CC1C)C(=O)N1CCCC(N1)C(=O)OCC(C)(C)C2	inactive
Cc1nc(N2CCC3(CC2)COC(C)C3N)c(CO)nc1Sc1ccnc(N)c1Cl (centres undefined) + CCn1c(-c2cccnc2C(C)OC)c2c3cc(ccc31)N1CCOC(CC(NC(=O)C(C(C)C)N(C)C(=O)C3(F)CCN(C(=O)C#CC(C)(C)N(C)C)CC3)C(=O)N3CCCC(N3)C(=O)OCC(C)(C)C2)C1	inactive
CCC(CC)c1cc(NC2CCC(N)C2)n2nccc2n1 (centres undefined) + CCn1c(-c2cccnc2C(C)OC)c2c3cc(ccc31)N1CCOC(CC(NC(=O)C(C(C)C)N(C)C(=O)C3(F)CCN(C(=O)C#CC(C)(C)N(C)C)CC3)C(=O)N3CCCC(N3)C(=O)OCC(C)(C)C2)C1	active

Consider the additional molecule presented here.
In: How did this test come out for CC(C)NCC(C(=O)N1CCN(c2ncnc3c2C(C)CC3O)CC1)c1ccc(Cl)cc1 (centres undefined) + CCn1c(-c2cccnc2C(C)OC)c2c3cc(ccc31)N1CCOC(CC(NC(=O)C(C(C)C)N(C)C(=O)C3(F)CCN(C(=O)C#CC(C)(C)N(C)C)CC3)C(=O)N3CCCC(N3)C(=O)OCC(C)(C)C2)C1 ?
Out: inactive

----------
test system: 966289-007-R4-J1-PDC complex spheroid viability; assay: Anticancer human tumor 966289-007-R4-J1-PDC cell line growth inhibition [RAS]; conditions: second compound 0.03 µM; first compound 1 µM; stronger effect = lower value;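 further: spheroids exposed to agents for one week before readout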;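 on viability, T/C: percent viability relative to DMSO vehicle control wells as 100%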
Each entry below carries its reported viability, T/C.

See these solved cases before continuing.
compound	viability, T/C
CCC(CC)c1cc(NC2CCC(N)C2)n2nccc2n1 (centres undefined) + CCn1c(-c2cccnc2C(C)OC)c2c3cc(ccc31)N1CCOC(CC(NC(=O)C(C(C)C)N(C)C(=O)C3(F)CCN(C(=O)C#CC(C)(C)N(C)C)CC3)C(=O)N3CCCC(N3)C(=O)OCC(C)(C)C2)C1	52.9%
O=C(c1ccc(F)c(F)c1Nc1ccc(I)cc1F)N1CC(O)([C@@H]2CCCCN2)C1 + CCn1c(-c2cccnc2C(C)OC)c2c3cc(ccc31)N1CCOC(CC(NC(=O)C(C(C)C)N(C)C(=O)C3(F)CCN(C(=O)C#CC(C)(C)N(C)C)CC3)C(=O)N3CCCC(N3)C(=O)OCC(C)(C)C2)C1	44.3%
CC(Nc1ccc2c(c1)OCCn1cc(N3C(=O)OCC3C(F)F)nc1-2)C(N)=O (centres undefined) + CCn1c(-c2cc(N3CCN(C)CC3)cnc2C(C)OC)c2c3cc(ccc31)-c1csc(n1)CC(NC(=O)C1CC1C)C(=O)N1CCCC(N1)C(=O)OCC(C)(C)C2	92.2%

--- query ---
In: Recorded viability, T/C of C=CC(=O)Nc1cc(Nc2nccc(-c3cn(C)c4ccccc34)n2)c(OC)cc1N(C)CCN(C)C + CCn1c(-c2cc(N3CCN(C)CC3)cnc2C(C)OC)c2c3cc(ccc31)-c1csc(n1)CC(NC(=O)C1CC1C)C(=O)N1CCCC(N1)C(=O)OCC(C)(C)C2 , please.
Out: 96.8%

----------
Tested on: 966289-007-R4-J1-PDC complex spheroid viability
Experiment: Anticancer human tumor 966289-007-R4-J1-PDC cell line growth inhibition [RAS];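 further: spheroids exposed to agents for one week before readout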;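 on viability, T/C: percent viability relative to DMSO vehicle control wells as 100%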
Conditions: second compound 0.0949 µM; first compound 0.01 µM; stronger effect = lower value
Description: RAS pathway inhibitors in Combinations in Complex Spheroids A high-throughput screen of multi-cell type tumor spheroids was designed to identify active combinations of RAS pathway inhibitors and targeted small molecules. Complex spheroids include a stromal component modeled by human endothelial cells (HUVEC) and fibroblasts modeled by human mesenchymal stem cells (MSCs). […] Compounds. […] If the clinical Cmax for an agent had not been determined, the highest concentration tested was 10 microM. […]
measured_property: viability, T/C (%)
Only the number, expressed in %, is required.

molecule	measured_property	recorded_result
O=C(c1ccc(F)c(F)c1Nc1ccc(I)cc1F)N1CC(O)([C@@H]2CCCCN2)C1 + CCn1c(-c2cc(N3CCN(C)CC3)cnc2C(C)OC)c2c3cc(ccc31)-c1csc(n1)CC(NC(=O)C1CC1C)C(=O)N1CCCC(N1)C(=O)OCC(C)(C)C2	viability, T/C	93
C=CC(=O)Nc1cc(Nc2nccc(-c3cn(C)c4ccccc34)n2)c(OC)cc1N(C)CCN(C)C + CCn1c(-c2cccnc2C(C)OC)c2c3cc(ccc31)N1CCOC(CC(NC(=O)C(C(C)C)N(C)C(=O)C3(F)CCN(C(=O)C#CC(C)(C)N(C)C)CC3)C(=O)N3CCCC(N3)C(=O)OCC(C)(C)C2)C1	viability, T/C	93.5
CC(C)n1nc(-c2ccc3oc(N)nc3c2)c2c(N)ncnc21 + CCn1c(-c2cccnc2C(C)OC)c2c3cc(ccc31)N1CCOC(CC(NC(=O)C(C(C)C)N(C)C(=O)C3(F)CCN(C(=O)C#CC(C)(C)N(C)C)CC3)C(=O)N3CCCC(N3)C(=O)OCC(C)(C)C2)C1	viability, T/C	81.3

--- query ---
In: Recorded viability, T/C of C=CC(=O)N1CCN(c2nc(OCC3CCCN3C)nc3c(F)c(-c4nc(N)cc(C)c4C(F)(F)F)c(Cl)cc23)C(C)C1 (centres undefined) + CCn1c(-c2cccnc2C(C)OC)c2c3cc(ccc31)N1CCOC(CC(NC(=O)C(C(C)C)N(C)C(=O)C3(F)CCN(C(=O)C#CC(C)(C)N(C)C)CC3)C(=O)N3CCCC(N3)C(=O)OCC(C)(C)C2)C1 , please.
Out: 76.5

----------
tested on: 966289-007-R4-J1-PDC complex spheroid viability; experiment: Anticancer human tumor 966289-007-R4-J1-PDC cell line growth inhibition [RAS]; conditions: curve of first compound; second compound 3.16 µM;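 further: spheroids exposed to agents for one week before readout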
Each entry below carries its reported IC50.

compound	tested_target	measured_property	recorded_result
CCc1c2c(nc3ccc(O)cc13)-c1cc3c(c(=O)n1C2)COC(=O)[C@]3(O)CC + C#Cc1c(F)ccc2cc(O)cc(-c3ncc4c(N5CC6CCC(C5)N6)nc(OCC56CCCN5CC(F)C6)nc4c3F)c12	966289-007-R4-J1-PDC complex spheroid viability	IC50	1.51 nM

In: Lookup: IC50 / 966289-007-R4-J1-PDC complex spheroid viability / C=CC(=O)N1CCN(c2nc(OCC3CCCN3C)nc3c(F)c(-c4nc(N)cc(C)c4C(F)(F)F)c(Cl)cc23)C(C)C1 (stereo unspecified) + C#Cc1c(F)ccc2cc(O)cc(-c3ncc4c(N5CC6CCC(C5)N6)nc(OCC56CCCN5CC(F)C6)nc4c3F)c12
Out: > 1000 nM

In: And then CCN1CCN(Cc2ccc(Nc3ncc(F)c(-c4cc(F)c5nc(C)n(C(C)C)c5c4)n3)nc2)CC1 + C#Cc1c(F)ccc2cc(O)cc(-c3ncc4c(N5CC6CCC(C5)N6)nc(OCC56CCCN5CC(F)C6)nc4c3F)c12 , what is it?
Out: > 1000 nM

In: And then Cc1nc(N2CCC3(CC2)COC(C)C3N)c(CO)nc1Sc1ccnc(N)c1Cl (stereo unspecified) + C#Cc1c(F)ccc2cc(O)cc(-c3ncc4c(N5CC6CCC(C5)N6)nc(OCC56CCCN5CC(F)C6)nc4c3F)c12 , what is it?
Out: > 10000 nM

In: And then NC1c2ccccc2OC12CCN(c1cnc3c(N4CCCc5ncccc54)n[nH]c3n1)CC2 (stereo unspecified) + C#Cc1c(F)ccc2cc(O)cc(-c3ncc4c(N5CC6CCC(C5)N6)nc(OCC56CCCN5CC(F)C6)nc4c3F)c12 , what is it?
Out: > 10000 nM

In: And then CC1(O)CCCC1n1c(=O)c(C(F)F)cc2cnc(NC3CCN(S(C)(=O)=O)CC3)nc21 (stereo unspecified) + C#Cc1c(F)ccc2cc(O)cc(-c3ncc4c(N5CC6CCC(C5)N6)nc(OCC56CCCN5CC(F)C6)nc4c3F)c12 , what is it?
Out: 221 nM
